System: L929
Test: Cytotoxicity against mouse L929 cells assessed as reduction in cell viability at 1.9 ug/ml after 24 hrs by neutral red staining-based spectrophotometric analysis
Conditions: l929, 24 h
MEASURED PARAMETER: Activity

CCCC[Te]c1ccc(C(C)N)cc1 (centres undefined)
Non-Toxic
CCCC[Te]c1cccc(/C(C)=N/O)c1
Non-Toxic
CCCC[Te]c1ccc(/C(C)=N/O)cc1
Non-Toxic
CCCC[Te]c1cccc(C(C)N)c1 (centres undefined)
Non-Toxic

----------
Test: Antioxidant activity assessed as ferric ion reducing activity by measuring trolox equivalents after 40 mins by FRAP assay
Format: functional
The source made the active and inactive calls. The rule behind the calls is not given here.
MEASURED PARAMETER: Activity

Consider the following illustrative entries.
CCCC[Te]c1ccc(C(C)N)cc1 (centres undefined)
Active
CCCCNC(C)c1ccc([Te]CCCC)cc1 (centres undefined)
inactive
CCCC[Te]c1cccc(/C(C)=N/O)c1
Active
CCCC[Te]c1ccc(C(C)NCc2ccccc2)cc1 (centres undefined)
inactive
CCCC[Te]c1ccc(C(C)NCC(C)C)cc1 (centres undefined)
inactive
CCCC[Te]c1cccc(C(C)N)c1 (centres undefined)
Active
C/C(=N\O)c1ccc([Te]CCCO)cc1
inactive
CCCC[Te]c1ccc(/C(C)=N/O)cc1
Active

Inquiry: Fill blank: measured Activity of the molecule O=c1c(O)c(-c2ccc(O)c(O)c2)oc2cc(O)cc(O)c12 [QUERCETIN] is ____.
Reply text: Active

----------
Tested on: L929
Assay: Cytotoxicity against mouse L929 cells assessed as reduction in cell viability at 3.9 to 15.6 ug/ml after 24 hrs by neutral red staining-based spectrophotometric analysis
Settings: l929, 24 h
MEASURED PARAMETER: Activity

Consider the following illustrative entries.
CCCC[Te]c1cccc(C(C)N)c1 (configuration not stated)
Toxic
CCCC[Te]c1ccc(C(C)N)cc1 (configuration not stated)
Toxic
CCCCNC(C)c1ccc([Te]CCCC)cc1 (configuration not stated)
Non-Toxic
CCCC[Te]c1ccc(C(C)NCc2ccccc2)cc1 (configuration not stated)
Non-Toxic

Inquiry: Fill blank: measured Activity of the compound CCCC[Te]c1cccc(/C(C)=N/O)c1 is ____.
Reply text: Toxic

Inquiry: Fill blank: measured Activity of the compound CCCC[Te]c1ccc(C(C)NCC(C)C)cc1 (configuration not stated) is ____.
Reply text: Non-Toxic

Inquiry: Fill blank: measured Activity of the compound CCCC[Te]c1ccc(/C(C)=N/O)cc1 is ____.
Reply text: Toxic
